Each recorded value in this set is attributed to ChEMBL document CHEMBL3997764.

- test-description: Clearance in BALB/c mouse plasma at 1 mg/kg, iv up to 24 hrs by LC-MS/MS analysis
- Type: ADME, organism-based
assay-endpoint: clearance (mL/min/kg)
Give bare numbers, in mL/min/kg.

Problem: Look up clearance: `CCOP(=O)(OCC)C(=Cc1ccccc1)P(=O)(OCC)OCC`
Result: 30.4

----------
- test-description: Volume of distribution in BALB/c mouse at 1 mg/kg, iv up to 24 hrs by LC-MS/MS analysis
- Format: ADME, organism-based
- settings: in vivo
assay-endpoint: Vd (L/kg)
Numbers only, in L/kg.

Problem: Look up Vd: `CCOP(=O)(OCC)C(=Cc1ccccc1)P(=O)(OCC)OCC`
Result: 1.81
